Some compounds, each annotated with its measured IC50.
System Tested: EGFR L858R/T790M (Homo sapiens, UniProt P00533, L858R/T790M)
Construct: purchased Carna Bio
Sequence (P00533 25-1210 T790M/L858R): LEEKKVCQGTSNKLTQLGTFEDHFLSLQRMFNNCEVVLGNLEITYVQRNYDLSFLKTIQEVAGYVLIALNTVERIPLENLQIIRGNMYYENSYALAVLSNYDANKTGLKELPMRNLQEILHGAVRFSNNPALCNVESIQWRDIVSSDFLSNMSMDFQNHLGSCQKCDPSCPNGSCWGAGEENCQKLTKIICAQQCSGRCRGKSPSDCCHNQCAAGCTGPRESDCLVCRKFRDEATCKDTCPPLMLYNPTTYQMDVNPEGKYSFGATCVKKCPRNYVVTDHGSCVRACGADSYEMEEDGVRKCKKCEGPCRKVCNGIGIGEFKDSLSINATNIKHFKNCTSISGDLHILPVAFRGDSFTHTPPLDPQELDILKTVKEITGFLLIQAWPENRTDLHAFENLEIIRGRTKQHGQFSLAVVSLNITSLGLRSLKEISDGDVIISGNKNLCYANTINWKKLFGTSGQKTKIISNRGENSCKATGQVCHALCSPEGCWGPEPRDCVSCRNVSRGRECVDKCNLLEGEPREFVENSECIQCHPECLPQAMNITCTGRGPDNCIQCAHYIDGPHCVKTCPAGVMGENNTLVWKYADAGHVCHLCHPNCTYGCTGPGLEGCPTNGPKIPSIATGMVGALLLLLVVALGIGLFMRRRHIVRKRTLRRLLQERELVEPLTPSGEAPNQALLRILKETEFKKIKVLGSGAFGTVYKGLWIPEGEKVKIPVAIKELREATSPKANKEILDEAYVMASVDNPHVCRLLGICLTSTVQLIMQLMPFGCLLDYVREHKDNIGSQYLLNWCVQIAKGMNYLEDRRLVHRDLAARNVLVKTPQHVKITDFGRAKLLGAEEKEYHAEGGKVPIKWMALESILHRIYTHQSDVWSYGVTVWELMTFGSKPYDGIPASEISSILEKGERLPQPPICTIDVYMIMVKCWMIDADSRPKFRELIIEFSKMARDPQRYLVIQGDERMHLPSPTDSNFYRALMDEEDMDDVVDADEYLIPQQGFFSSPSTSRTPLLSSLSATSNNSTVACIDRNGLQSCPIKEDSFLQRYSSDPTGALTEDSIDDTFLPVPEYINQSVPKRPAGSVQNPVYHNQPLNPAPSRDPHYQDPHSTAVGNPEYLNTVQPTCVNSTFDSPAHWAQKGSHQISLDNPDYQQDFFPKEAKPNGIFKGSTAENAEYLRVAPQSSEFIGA
Assay Protocol: Inhibition of EGFR L858R/T790M biochemical enzymatic activity (HTRF)
Run Parameters: EGFR L858R-T790M, 1 mM ATP, 1 h, room temperature, read-out: IC50 (nM) @L858R-T790M

CN1CCC2(CC1)CCN(c1ccc3nc4n(c3c1)C13CCC(CC1)CN(CCOc1c(cnn1C)-c1cc(cn(C)c1=O)C(=O)N4)C3)C2	223 nM
CN1CC2CN(c3ccc4nc5n(c4c3)C34CCC(CC3)CN(CCOc3c(cnn3C)-c3cc(cn(C)c3=O)C(=O)N5)C4)CC2C1 (stereo not drawn)	169 nM

Now consider the entry below.
Exercise: # get_value(readout='IC50', item= Cn1ncc2c1OCCN1CC3CCC(C3)(C1)n1c(nc3ccc(N4CCC(N5CC(F)C5)C4)cc31)NC(=O)c1cc-2c(=O)n(C)c1 (single isomer, unassigned) [Example A94B2] )
Solution: 9.7 nM

----------
Tested on: Ba/F3 cells expressing EGFR mutations
Assay Protocol: Cell proliferation assay, Ba/F3 cells expressing EGFR mutations (CellTiter-Glo, 72 hours)
Format: cell-based
Run Parameters: Mus musculus, BaF3, 72 h, BaF3 cells, EGFR L858R-T790M, CellTiter-Glo, read-out: L858R-T790M/BaF3 GI50
Metric Name: log10 GI50 (log10 of the value in nM)
Values below are the log10 of the recorded GI50, with nM as the unit.

C[C@@H]1CCCOc2c(cnn2C)-c2cc(cn(C)c2=O)C(=O)Nc2nc3ccc(N4CCNCC4)c(Cl)c3n2C1 [Example A23]	2.18
Cn1ncc2c1OCCN1CC3CCC(C3)(C1)n1c(nc3ccccc31)NC(=O)c1cc-2c(=O)n(C)c1 (single isomer, unassigned) [Example A61A]	3.42
C[C@@H]1CCCOc2c(cnn2C)-c2cc(cn(C)c2=O)C(=O)Nc2nc3ccc(N4CCN(CC(F)(F)F)CC4)cc3n2C1 [Example A53]	1.71
C[C@@H]1CCCOc2c(cnn2C)-c2cc(cn(C)c2=O)C(=O)Nc2nc3ccc(N4CCC(N(C)C)C(F)(F)C4)cc3n2C1 (some centres unmarked) [Example A51]	1.81
C[C@@H]1CCCOc2c(cnn2C)-c2cc(cn(C)c2=O)C(=O)Nc2nc3ccc(N4CC(N5CCN(C)CC5)C4)cc3n2C1 [Example A46]	1.08
CCN1CCOc2c(cnn2C)-c2cc(cn(C)c2=O)C(=O)Nc2nc3ccccc3n2C(C)(C)C1 [Example A7]	2.90

Exercise: # get_value(readout='log10 GI50', item= C[C@@H]1CCCOc2c(cnn2C)-c2cc(cn(C)c2=O)C(=O)Nc2nc3ccc(N4CCC(N(C)C)C4)cc3n2C1 (some centres unmarked) [Example A27] )
Solution: 0.83

Exercise: # get_value(readout='log10 GI50', item= C[C@@H]1CCCOc2c(cnn2C)-c2cc(cn(C)c2=O)C(=O)Nc2nc3ccc(N4CC5(CCN(C)CC5(F)F)C4)cc3n2C1 [Example A56] )
Solution: 1.41

----------
Some molecules, each annotated with its measured IC50.
System Tested: EGFR[T790M/C797S/L858R] (Homo sapiens, UniProt P00533, C797S/L858R/T790M)
Construct: purchased Carna Bio
Sequence (P00533 25-1210 T790M/C797S/L858R): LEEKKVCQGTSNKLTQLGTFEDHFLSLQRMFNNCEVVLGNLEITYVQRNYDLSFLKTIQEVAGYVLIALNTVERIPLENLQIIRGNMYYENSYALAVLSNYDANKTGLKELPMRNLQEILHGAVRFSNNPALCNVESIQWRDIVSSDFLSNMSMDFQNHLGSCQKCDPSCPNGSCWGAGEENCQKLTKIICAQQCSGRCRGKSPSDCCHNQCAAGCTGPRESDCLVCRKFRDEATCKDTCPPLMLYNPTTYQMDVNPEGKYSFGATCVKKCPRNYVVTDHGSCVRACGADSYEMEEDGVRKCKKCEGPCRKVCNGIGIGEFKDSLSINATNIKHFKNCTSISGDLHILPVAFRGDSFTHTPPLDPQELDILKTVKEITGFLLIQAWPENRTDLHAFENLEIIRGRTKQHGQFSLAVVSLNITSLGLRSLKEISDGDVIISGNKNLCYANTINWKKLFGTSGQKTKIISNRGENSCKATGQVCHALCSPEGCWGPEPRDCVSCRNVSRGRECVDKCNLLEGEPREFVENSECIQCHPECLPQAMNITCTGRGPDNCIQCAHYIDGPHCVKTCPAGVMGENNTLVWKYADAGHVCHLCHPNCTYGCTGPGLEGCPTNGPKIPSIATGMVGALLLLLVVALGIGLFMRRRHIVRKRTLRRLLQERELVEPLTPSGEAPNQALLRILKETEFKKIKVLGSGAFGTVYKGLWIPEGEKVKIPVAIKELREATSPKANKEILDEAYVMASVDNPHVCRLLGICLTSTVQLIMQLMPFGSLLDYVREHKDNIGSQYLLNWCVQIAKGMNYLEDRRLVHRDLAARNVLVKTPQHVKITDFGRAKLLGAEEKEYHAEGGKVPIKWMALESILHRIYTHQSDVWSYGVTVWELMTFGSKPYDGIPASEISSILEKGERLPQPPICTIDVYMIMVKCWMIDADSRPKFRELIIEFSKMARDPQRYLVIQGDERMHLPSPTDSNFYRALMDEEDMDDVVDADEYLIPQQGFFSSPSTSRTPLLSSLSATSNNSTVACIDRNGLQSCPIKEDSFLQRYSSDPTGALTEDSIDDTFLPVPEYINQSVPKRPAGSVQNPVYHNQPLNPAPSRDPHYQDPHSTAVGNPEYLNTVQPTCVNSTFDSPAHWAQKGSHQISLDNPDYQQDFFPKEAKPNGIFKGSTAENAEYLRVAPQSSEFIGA
Assay Protocol: Inhibition of EGFR[T790M/C797S/L858R] biochemical enzymatic activity (HTRF)
Run Parameters: EGFR T790M-C797S-L858R, 1 mM ATP, 1 h, room temperature, read-out: IC50 (nM) @T790M- C797S - L858R
A number alone suffices; assume nM.

Answered examples (5):
Cn1ncc2c1OCCN1CC3CCC(C3)(C1)n1c(nc3ccc(N4CCOCC4)cc31)NC(=O)c1cc-2c(=O)n(C)c1 (stereo not shown) [Example A62]	7.3
CN1CCN(c2ccc3nc4n(c3c2)C23CCC(CC2)CN(CCOc2c(cnn2C)-c2cc(cn(C)c2=O)C(=O)N4)C3)CC1	8
CCC1CCCOc2c(cnn2C)-c2cc(cn(C)c2=O)C(=O)Nc2nc3ccc(N4CCN(C)CC4)cc3n2C1 (single isomer, unassigned) [Example A16B]	14
CN(C)C1CN(c2ccc3nc4n(c3c2)C23CCC(CN(CCOc5c(cnn5C)-c5cc(cn(C)c5=O)C(=O)N4)C2)C3)CC1(F)F (single isomer, unassigned) [Example A99B]	10
C[C@@H]1CCCOc2ccccc2-c2cc(cn(C)c2=O)C(=O)Nc2nc3ccc(N4CCN(C)CC4)cc3n2C1	10

Exercise: # get_value(readout='IC50', item= CN(C)C1CN(c2ccc3nc4n(c3c2)C23CCC(CN(CCOc5c(cnn5C)-c5cc(cn(C)c5=O)C(=O)N4)C2)C3)C1 (single isomer, unassigned) [Example A65B] )
Solution: 1.8

----------
Some compounds, each annotated with its measured IC50.
System Tested: EGFR L858R (Homo sapiens, UniProt P00533, L858R)
Construct: purchased Carna Bio
Sequence (P00533 25-1210 L858R): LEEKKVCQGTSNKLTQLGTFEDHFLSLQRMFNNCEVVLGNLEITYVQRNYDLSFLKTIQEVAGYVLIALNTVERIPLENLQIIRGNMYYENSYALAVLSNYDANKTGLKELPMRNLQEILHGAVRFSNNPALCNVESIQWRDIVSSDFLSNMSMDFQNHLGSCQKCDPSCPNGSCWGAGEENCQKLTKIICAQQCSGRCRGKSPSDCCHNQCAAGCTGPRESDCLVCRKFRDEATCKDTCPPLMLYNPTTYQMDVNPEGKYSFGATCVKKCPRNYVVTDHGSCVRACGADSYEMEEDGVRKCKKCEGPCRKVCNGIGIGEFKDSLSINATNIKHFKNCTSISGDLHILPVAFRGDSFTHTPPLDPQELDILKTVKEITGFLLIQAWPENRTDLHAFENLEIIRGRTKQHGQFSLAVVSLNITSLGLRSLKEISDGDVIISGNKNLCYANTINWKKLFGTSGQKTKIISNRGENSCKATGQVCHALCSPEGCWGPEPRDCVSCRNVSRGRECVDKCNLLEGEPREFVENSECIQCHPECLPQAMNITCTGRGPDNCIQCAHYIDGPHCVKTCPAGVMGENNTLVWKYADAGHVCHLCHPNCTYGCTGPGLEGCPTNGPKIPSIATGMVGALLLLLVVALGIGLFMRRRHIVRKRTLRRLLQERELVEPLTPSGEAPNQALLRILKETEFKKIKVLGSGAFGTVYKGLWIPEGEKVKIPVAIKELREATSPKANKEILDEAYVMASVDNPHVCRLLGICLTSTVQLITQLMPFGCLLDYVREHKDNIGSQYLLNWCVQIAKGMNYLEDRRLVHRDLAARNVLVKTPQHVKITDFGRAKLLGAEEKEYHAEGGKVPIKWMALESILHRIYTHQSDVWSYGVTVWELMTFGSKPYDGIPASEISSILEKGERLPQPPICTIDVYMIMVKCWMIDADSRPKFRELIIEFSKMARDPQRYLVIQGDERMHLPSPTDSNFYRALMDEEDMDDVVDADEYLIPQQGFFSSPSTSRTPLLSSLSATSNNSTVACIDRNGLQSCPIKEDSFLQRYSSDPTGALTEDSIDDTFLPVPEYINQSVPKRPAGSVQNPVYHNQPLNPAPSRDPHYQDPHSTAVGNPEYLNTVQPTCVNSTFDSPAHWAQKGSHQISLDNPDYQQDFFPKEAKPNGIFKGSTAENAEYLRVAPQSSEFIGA
Assay Protocol: Inhibition of EGFR L858R biochemical enzymatic activity (HTRF)
Run Parameters: 1 mM ATP, 1 h at room temperature, read-out: IC50 @L858R
Answer with the value and then the unit.

Answered examples (4):
Cc1cc2cc(n1)-c1cnn(C)c1OCCN1CC3CCC(C3)(C1)n1c(nc3ccc(N4CCC5(CCN(C)CC5)C4)cc31)NC2=O (single isomer, unassigned) [Example B51B]	21 nM
Cc1cc2cc(n1)-c1cnn(C)c1OCCN1CC3CCC(C3)(C1)n1c(nc3ccc(N4CCC5(CCN(C)C5)CC4)cc31)NC2=O (single isomer, unassigned) [Example B52B]	6 nM
Cc1cc2cc(n1)-c1cnn(C)c1OCCN1CC3CCC(CC3)(C1)n1c(nc3ccc(N4CCC5(CN(C)C5)C4)cc31)NC2=O	194 nM
Cc1cc2cc(n1)-c1cnn(C)c1OCCN1CC3CCC(C3)(C1)n1c(nc3ccc(N(C)CCCN(C)C)cc31)NC2=O (single isomer, unassigned) [Example B45B]	46 nM

Exercise: # get_value(readout='IC50', item= Cc1cc2cc(n1)-c1cnn(C)c1OCCN1CC3CCC(C3)(C1)n1c(nc3ccc(N4CCC(N5CCOCC5)C4)cc31)NC2=O (single isomer, unassigned) [Example B44B2] )
Solution: 267 nM

----------
System Tested: EGFR (d746-750 C797S) (Homo sapiens, UniProt P00533, C797S/DEL746-750)
Construct: purchased signalchem
Sequence (P00533 with tags, fused parts or gaps DEL746-750/C797S limits assumed): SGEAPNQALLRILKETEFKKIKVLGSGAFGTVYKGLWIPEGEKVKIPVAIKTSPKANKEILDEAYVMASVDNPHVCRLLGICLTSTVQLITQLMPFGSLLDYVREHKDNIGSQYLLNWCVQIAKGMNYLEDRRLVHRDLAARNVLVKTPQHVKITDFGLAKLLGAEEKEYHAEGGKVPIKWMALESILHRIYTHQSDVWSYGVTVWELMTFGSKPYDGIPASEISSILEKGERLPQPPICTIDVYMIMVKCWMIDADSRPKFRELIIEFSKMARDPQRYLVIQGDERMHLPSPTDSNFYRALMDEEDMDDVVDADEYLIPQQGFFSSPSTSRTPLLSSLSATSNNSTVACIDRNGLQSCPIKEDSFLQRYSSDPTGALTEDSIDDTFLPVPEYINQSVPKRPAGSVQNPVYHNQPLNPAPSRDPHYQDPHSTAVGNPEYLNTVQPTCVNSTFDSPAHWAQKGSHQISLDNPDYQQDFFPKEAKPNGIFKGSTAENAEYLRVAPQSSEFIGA
Assay Protocol: Inhibition of EGFR (d746-750 C797S) biochemical enzymatic activity (HTRF)
Run Parameters: EGFR (d746-750 C797S), 1 mM ATP, 1 h at room temperature, read-out: IC50 @Del19-C797S
Some molecules, each annotated with its measured IC50.
A number alone suffices; assume nM.

Answered examples (8):
Cc1cc2cc(n1)-c1cnn(C)c1OCCN1CC3CCC(C3)(C1)n1c(nc3ccc(N4CC[C@H](N(C)C)C4)cc31)NC2=O (single isomer, unassigned) [Example B41B]	3
Cc1cc2cc(n1)-c1cnn(C)c1OCCN1CC3CCC(CC3)(C1)n1c(nc3ccc(N4CCN(C(C)C)CC4)cc31)NC2=O [Example B39]	9.4
Cc1cc2cc(n1)-c1cnn(C)c1OCCN1CC3CCC(C3)(C1)n1c(nc3ccc(N4CCC(N5CCOCC5)C4)cc31)NC2=O (single isomer, unassigned) [Example B44B2]	8.5
COCCN(C)c1ccc2nc3n(c2c1)C12CCC(CN(CCOc4c(cnn4C)-c4cc(cc(C)n4)C(=O)N3)C1)C2 (single isomer, unassigned) [Example B46B]	7.5
Cc1cc2cc(n1)-c1cnn(C)c1OCCN1CC3CCC(C3)(C1)n1c(nc3ccc(N4CCC5(CCN(C)C5)CC4)cc31)NC2=O (single isomer, unassigned) [Example B52B]	2.4
Cc1cc2cc(n1)-c1cnn(C)c1OCCN1CC3CCC(C3)(C1)n1c(nc3ccccc31)NC2=O (single isomer, unassigned) [Example B8A]	659
Cc1cc2cc(n1)-c1cnn(C)c1OCCN1CC3CCC(C3)(C1)n1c(nc3ccc(N4CC5CC4CN5C)cc31)NC2=O (single isomer, unassigned) [Example B53B]	1.9
Cc1cc2cc(n1)-c1cnn(C)c1OCCN1CC3CCC(C3)(C1)n1c(nc3ccc(N(C)CCN(C)C)cc31)NC2=O (single isomer, unassigned) [Example B47B]	2.8

Exercise: # get_value(readout='IC50', item= Cc1cc2cc(n1)-c1cc(=O)n(C)cc1OCCC[C@@H](C)Cn1c(nc3ccccc31)NC2=O [Example B11] )
Solution: 4320

Exercise: # get_value(readout='IC50', item= Cc1cc2cc(n1)-c1cnn(C)c1OCCN1CC3CCC(CC3)(C1)n1c(nc3ccc(N4CCC5(CC4)CCN5C)cc31)NC2=O [Example B30] )
Solution: 8.7
